target: full length active recombinant SYK enzyme (Homo sapiens, UniProt P43405); construct: full length active recombinant SYK enzyme (Millipore, Calif.); test: Inhibition of Syk tyrosine phosphorylation activity (LANCE TR-FRET kinase assay); details: 1 nM active SYK enzyme, 550 nM SYK-substrate, 100 μM ATP, 1 hour at room temperature
measurement-type: IC50

molecule="NC(=O)c1nnc(N[C@@H]2CCCC(F)(F)[C@@H]2N)nc1Nc1cccc(-c2ncccn2)c1 [Example 2]" measured="100 to 1000 nM"
molecule="Cn1ccc2cc(Nc3nc(N[C@@H]4CCCC[C@@H]4N)nnc3C(N)=O)ccc21 [Example 118]" measured="1 to 10 nM"
molecule="NC(=O)c1nnc(N[C@@H]2CCCC[C@@H]2N)nc1Nc1cccc(OC(F)F)c1 [Example 124]" measured="1 to 10 nM"
molecule="Cc1ccc(Nc2nc(N[C@@H]3CCCC[C@@H]3N)nnc2C(N)=O)cc1F [Example 19]" measured="1 to 10 nM"
molecule="Cn1ccc2ccc(Nc3nc(N[C@@H]4CCOC[C@@H]4N)nnc3C(N)=O)cc21 [Example 165]" measured="1 to 10 nM"
molecule="NC(=O)c1nnc(N[C@@H]2CCCC[C@@H]2N)nc1Nc1ccc(F)cc1 [Example 25]" measured="10 to 100 nM"
molecule="CC[C@@H](Nc1nnc(C(N)=O)c(Nc2ccc(C)c(C#N)c2)n1)C(N)=O [Example 234]" measured="100 to 1000 nM"
molecule="NC(=O)c1nnc(N[C@@H]2CCCC[C@@H]2N)nc1Nc1ccc(C(=O)N2CCC2)nc1 [Example 66]" measured="10 to 100 nM"
molecule="NC(=O)c1nnc(N[C@@H]2CCCC[C@@H]2N)nc1Nc1cccc(F)c1 [Example 17]" measured="1 to 10 nM"
molecule="NC(=O)c1nnc(N[C@@H]2CCOC[C@@H]2N)nc1Nc1cccc(C(F)(F)F)c1 [Example 251]" measured="10 to 100 nM"
molecule="CC(C)[C@@H](Nc1nnc(C(N)=O)c(Nc2cccc3c2ccn3C)n1)C(N)=O [Example 87]" measured="10 to 100 nM"
molecule="NC(=O)c1nnc(N[C@@H]2CCOC[C@@H]2N)nc1Nc1ccc2scnc2c1 [Example 247]" measured="10 to 100 nM"
